Quick reference for upper right quadrant, percent of cells AF647+ / hTcRβ-PerCP+ among some binders
target: T1, monkey CD3e (Macaca fascicularis) on PBMC (Macaca fascicularis, UniProt Q95LI5 22-198); assay: flow cytometry, Macaca fascicularis PBMC, antibody concentration not given, anti-human IgG Fc-Alexa Fluor647 (1:500), anti-hTcRβ-PerCP (1:30)
T1 construct: Target on PBMC from Macaca fascicularis; also called mfCD3e; monkey PBMC
T1 sequence (Q95LI5 22-198 limits assumed): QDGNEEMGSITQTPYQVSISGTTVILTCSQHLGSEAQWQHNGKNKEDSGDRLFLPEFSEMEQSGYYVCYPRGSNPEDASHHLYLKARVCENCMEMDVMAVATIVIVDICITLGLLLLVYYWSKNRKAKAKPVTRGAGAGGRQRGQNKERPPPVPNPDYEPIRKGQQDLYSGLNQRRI
Answer with a number only, understood to be in %.

Sample answers from the record:
binder	unitName	testResult
1B1-H2K1-IgG1-LALA (antibody, V domains shown, Humanized; human IgG1 with LALA mutations; also called H2K1 (humanized 1B1)) VH: QVQLVQSGAEVKKPGASVKLSCKASGYTFTSYWMHWVRQAPGQGLEWIGNIYPDSGTTNYGEKFKTRVTLTVDTSTSTAYMELSSLRSEDTAVYYCTRDTSGQYYFDYWGQGTLVTVSS VL: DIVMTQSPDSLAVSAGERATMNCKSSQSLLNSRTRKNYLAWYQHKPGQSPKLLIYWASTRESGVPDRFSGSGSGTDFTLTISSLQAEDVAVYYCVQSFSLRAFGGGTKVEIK	%	25.6
10A4-H1K1-IgG1-LALA (antibody, V domains shown, Humanized; human IgG1 with LALA mutations; also called H1K1 (humanized 10A4)) VH: QVQLVQSGAEVKKPGASVKVSCKASGYTFTSYYIHWVRQAPGQRLEFIGWIYPGNVNAKYNEKFKGRVTITTDKSASTAYMELSSLRSEDTAVYYCAIKGGNYDWGQGTLVTVSS VL: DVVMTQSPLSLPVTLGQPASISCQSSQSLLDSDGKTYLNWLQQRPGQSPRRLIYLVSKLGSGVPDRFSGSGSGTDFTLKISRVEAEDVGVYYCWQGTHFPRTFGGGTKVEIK	%	2.33

Query block: Requested read-out: upper right quadrant, percent of cells AF647+ / hTcRβ-PerCP+. Entry: 10A4-H3K2-IgG1-LALA (antibody, V domains shown, Humanized; human IgG1 with LALA mutations; also called H3K2 (humanized 10A4)) VH: QVQLVQSGAEVKKPGASVKISCKASGYTFTSYYIHWVRQRPGQRLEFIGWIYPGNVNAKYNEKFKGRATLTTDKSASTAYMELSSLRSEDTAVYFCAIKGGNYDWGQGTLVTVSS VL: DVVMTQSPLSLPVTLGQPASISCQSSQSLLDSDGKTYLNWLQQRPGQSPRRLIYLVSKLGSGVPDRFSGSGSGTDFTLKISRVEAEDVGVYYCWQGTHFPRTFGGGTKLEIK
Result block: 1.69

Query block: Requested read-out: upper right quadrant, percent of cells AF647+ / hTcRβ-PerCP+. Entry: 1B1-H4K1-IgG1-LALA (antibody, V domains shown, Humanized; human IgG1 with LALA mutations; also called H4K1 (humanized 1B1)) VH: QVQLVQSGAEVVKPGASVKLSCKASGYTFTSYWMHWVRQRHGQGLEWIGNIYPDSGTTNYGEKFKTRGTLTVDTSTSTAYMELSSLRSEDTAVYYCTRDTSGQYYFDYWGQGTLVTVSS VL: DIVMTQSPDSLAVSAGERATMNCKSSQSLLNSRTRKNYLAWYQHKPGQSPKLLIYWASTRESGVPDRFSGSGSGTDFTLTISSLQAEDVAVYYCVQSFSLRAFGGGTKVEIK
Result block: 18.3

Query block: Requested read-out: upper right quadrant, percent of cells AF647+ / hTcRβ-PerCP+. Entry: 1B1-H1K3-IgG1-LALA (antibody, V domains shown, Humanized; human IgG1 with LALA mutations; also called H1K3 (humanized 1B1)) VH: QVQLVQSGAEVKKPGASVKVSCKASGYTFTSYWMHWVRQAPGQGLEWIGNIYPDSGTTNYGEKFKTRVTLTVDTSTSTAYMELSSLRSEDTAVYYCTRDTSGQYYFDYWGQGTLVTVSS VL: DIVMTQSPDSLAVSAGERVTMNCKSSQSLLNSRTRKNYLAWYQHKPGQSPKLLIYWASTRESGVPDRFSGSGSGTDFTLTISSVQAEDVAVYYCVQSFSLRAFGGGTKLEIK
Result block: 13.6
